experiment: soluble on expression in E. coli; label from the status in PepcDB or PDB records
observed_property: soluble on expression in E. coli

• MGSDKIHHHHHHMCRWLAYTGNPIHLETVLFRAKHSLIDQSLHSELGATTTNGDGFGIGWYGDPDELPFRYRSVHPAWNDRNLREAARAIRSRMFVAHIRAATDTPVQETNCHPFRHGRWLFAHNGLIRDFHKLRRDLTMKVDPALFPTLEGSTDSELMFRLALTYGLEQTPLPALERMVGMVEETAARYRVDEPLNMTICATDGDRIIAVRYSSERQSRSLFHTTSFKHLHELYPHNPRIAEAGDDAFMVVSEPLVDLRGAWEEVAESTAIVAQGADVQQRPFNPRHT = not soluble
• MIISDKFSLEAMCATTITDVKAGDEIILYGQKLTDENSCVTIKTDRVDIISSGNFIKYPNSTDIYDFDNKIDEWSFIIVEGVVNGNTIELNDKSTF = not soluble

Reference source: the DeepSol protein solubility set
